- assay.system: Prostaglandin E2 receptor EP1 subtype (Homo sapiens, UniProt P34995)
- Sequence (P34995 whole entry): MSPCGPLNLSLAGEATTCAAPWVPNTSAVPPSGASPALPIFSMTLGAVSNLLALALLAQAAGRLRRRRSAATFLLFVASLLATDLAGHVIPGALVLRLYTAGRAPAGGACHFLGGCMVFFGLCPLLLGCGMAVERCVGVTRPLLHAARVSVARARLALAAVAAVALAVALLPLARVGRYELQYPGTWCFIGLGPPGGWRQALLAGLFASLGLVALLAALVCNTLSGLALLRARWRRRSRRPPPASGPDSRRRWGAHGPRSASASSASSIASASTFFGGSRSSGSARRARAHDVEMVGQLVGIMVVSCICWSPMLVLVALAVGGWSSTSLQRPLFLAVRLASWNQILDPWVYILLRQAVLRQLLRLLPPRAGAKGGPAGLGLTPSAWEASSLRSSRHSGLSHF
- assay.protocol: Antagonist activity against human EP1 receptor expressed in CHOK1 cells assessed as inhibition of PGE2-induced intracellular calcium mobilization by FLIPR assay
- Type: functional, cell-based, CHO-K1
- recorded.conditions: read-out: Ki
assay.metric: pKi
Hey, just a heads up that pKi is the negative log base 10 of the concentration in molar.

Consider the compound CC(C)Cc1cn(-c2nc(C(=O)[O-])cs2)c2cc(Cl)ccc12.[Na+] tested on Prostaglandin E2 receptor EP1 subtype (Homo sapiens, UniProt P34995); state its pKi. 9.30

###

- assay.system: Prostaglandin E2 receptor EP1 subtype (Homo sapiens)
- assay.protocol: Displacement of [3H]PGE2 from human EP1 receptor expressed in CHOK1 cells
- Assay type: cell-based, CHO-K1
- recorded.conditions: read-out: Log IC50 (converted)
assay.metric: IC50 (nM)
The reply should be a number in nM, with the unit left off.

Solved cases (5 shown):
CC(C)Cc1cn(-c2ccc(C(=O)O)s2)c2cc(Cl)ccc12: 50.1
CC(C)(C)Cc1cn(-c2nc(C(=O)[O-])cs2)c2cc(Cl)ccc12.[Na+]: 31.6
CCc1cn(-c2nc(C(=O)O)cs2)c2cc(Cl)ccc12: 126
CN(C)C(=O)c1cn(-c2nc(C(=O)O)cs2)c2cc(Cl)ccc12: 1000
CC(C)Cc1cn(-c2cccc(C(=O)O)c2)c2cc(Cl)ccc12: 631

Entry CC(C)Cc1cn(-c2nc(C(=O)O)cs2)c2ccccc12 needs its IC50 filled in; supply it. 158

Entry CC(C)Cc1cn(-c2cccc(C(=O)[O-])n2)c2cc(Cl)ccc12.[Na+] needs its IC50 filled in; supply it. 63.1

Entry CC(C)Cc1cn(-c2nc(CC(=O)O)cs2)c2cc(Cl)ccc12 needs its IC50 filled in; supply it. 158

Entry CC(C)C(=O)c1cn(-c2nc(C(=O)O)cs2)c2cc(Cl)ccc12 needs its IC50 filled in; supply it. 100

Entry O=C(O)c1csc(-n2cc(Cc3ccccc3)c3ccc(Cl)cc32)n1 needs its IC50 filled in; supply it. 158

Entry CC(C)Cc1cn(-c2nc(C(=O)O)cs2)c2cc(C(F)(F)F)ccc12 needs its IC50 filled in; supply it. 12.6

Entry CCCc1cn(-c2nc(C(=O)[O-])cs2)c2cc(Cl)ccc12.[Na+] needs its IC50 filled in; supply it. 31.6

Entry CC(C)Cc1cn(Cc2nc(C(=O)O)cs2)c2cc(Cl)ccc12 needs its IC50 filled in; supply it. 6.31

Entry Cc1ccc2c(CC(C)C)cn(-c3nc(C(=O)O)cs3)c2c1 needs its IC50 filled in; supply it. 10

Entry Cc1c(CC(C)C)c2ccc(Cl)cc2n1-c1nc(C(=O)O)cs1 needs its IC50 filled in; supply it. 39.8

Entry CC(C)Cc1cn(-c2nc(C(=O)O)cs2)c2cc(F)ccc12 needs its IC50 filled in; supply it. 39.8

Entry CC(C)c1cn(-c2nc(C(=O)O)cs2)c2cc(Cl)ccc12 needs its IC50 filled in; supply it. 39.8

Entry CC(C)Cc1cn(-c2nc(C(=O)O)co2)c2cc(Cl)ccc12 needs its IC50 filled in; supply it. 7.94

Entry CC(C)Cc1cn(-c2ncc(C(=O)O)s2)c2cc(Cl)ccc12 needs its IC50 filled in; supply it. 100

Entry CC(C)(C)CCc1cn(-c2nc(C(=O)[O-])cs2)c2cc(Cl)ccc12.[Na+] needs its IC50 filled in; supply it. 6.31

Entry CC(C)Cc1cn(-c2ccc(C(=O)[O-])o2)c2cc(Cl)ccc12.[Na+] needs its IC50 filled in; supply it. 25.1

Entry CC(C)Cc1cn(-c2nc(C(=O)O)cs2)c2ccc(Cl)cc12 needs its IC50 filled in; supply it. 39.8

Entry O=C(O)c1csc(-n2cc(CC(F)(F)F)c3ccc(Cl)cc32)n1 needs its IC50 filled in; supply it. 251

Entry CC(C)Cc1cn(-c2nc(C(=O)O)cs2)c2cc(Br)ccc12 needs its IC50 filled in; supply it. 3.98
